The reported numbers originate from patent US20100286139A1.

# Assay target: JAK3 (Homo sapiens, UniProt P52333)
# Sequence (P52333 whole entry): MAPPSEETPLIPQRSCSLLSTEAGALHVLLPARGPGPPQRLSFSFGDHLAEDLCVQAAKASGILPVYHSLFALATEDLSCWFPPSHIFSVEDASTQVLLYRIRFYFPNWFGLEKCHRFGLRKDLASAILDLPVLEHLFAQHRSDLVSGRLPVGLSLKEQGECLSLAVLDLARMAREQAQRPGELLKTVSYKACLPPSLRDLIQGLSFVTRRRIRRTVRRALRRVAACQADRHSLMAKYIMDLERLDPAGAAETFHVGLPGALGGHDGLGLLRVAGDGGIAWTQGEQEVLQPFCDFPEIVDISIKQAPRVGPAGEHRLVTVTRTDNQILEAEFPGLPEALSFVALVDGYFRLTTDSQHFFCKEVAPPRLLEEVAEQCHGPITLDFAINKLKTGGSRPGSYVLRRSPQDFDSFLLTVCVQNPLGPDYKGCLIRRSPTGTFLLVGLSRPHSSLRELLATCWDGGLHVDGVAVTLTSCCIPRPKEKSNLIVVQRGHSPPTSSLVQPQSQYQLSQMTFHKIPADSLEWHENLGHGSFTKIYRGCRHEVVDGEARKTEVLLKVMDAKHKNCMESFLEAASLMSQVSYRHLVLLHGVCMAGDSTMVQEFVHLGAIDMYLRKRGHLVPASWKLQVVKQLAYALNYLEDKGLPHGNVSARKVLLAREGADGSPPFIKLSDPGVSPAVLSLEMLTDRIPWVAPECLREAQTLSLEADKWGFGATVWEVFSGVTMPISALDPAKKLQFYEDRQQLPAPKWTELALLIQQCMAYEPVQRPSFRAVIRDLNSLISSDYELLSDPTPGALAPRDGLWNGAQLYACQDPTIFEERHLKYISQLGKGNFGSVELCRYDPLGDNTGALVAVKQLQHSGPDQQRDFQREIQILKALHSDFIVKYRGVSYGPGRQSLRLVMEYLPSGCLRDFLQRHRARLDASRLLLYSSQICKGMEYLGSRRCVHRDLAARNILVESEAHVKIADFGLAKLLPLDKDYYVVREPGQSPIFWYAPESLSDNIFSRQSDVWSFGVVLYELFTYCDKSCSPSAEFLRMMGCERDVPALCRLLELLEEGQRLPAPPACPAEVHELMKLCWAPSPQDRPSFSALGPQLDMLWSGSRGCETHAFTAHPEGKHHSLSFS
# Method: JAK3 IL-2-NK-92/pSTAT5 cell-based assay (Cellomics ArrayScan HCS)
# Test settings: NK-92 cells, IL-2 0.5 ng/mL stimulated, n=4; read-out: relative IC50, inhibition of pSTAT5
Value kind: pIC50
Keep it numeric: pIC50 is minus log10 of the concentration in mol/L.

Note to self: pIC50 recorded for "Cc1cc(Nc2cc(CN3CCOCC3)c3nc(C)c(Cc4ccc(Cl)cc4F)n3n2)n[nH]1" was 6.03
